Catalogue of binders with associated pKd
Target: T1, recombinant His-tagged flotillin 2 (UniProt Q14254 1-428)
T1 construct: flotillin 2; also called FL2
T1 sequence (looked up): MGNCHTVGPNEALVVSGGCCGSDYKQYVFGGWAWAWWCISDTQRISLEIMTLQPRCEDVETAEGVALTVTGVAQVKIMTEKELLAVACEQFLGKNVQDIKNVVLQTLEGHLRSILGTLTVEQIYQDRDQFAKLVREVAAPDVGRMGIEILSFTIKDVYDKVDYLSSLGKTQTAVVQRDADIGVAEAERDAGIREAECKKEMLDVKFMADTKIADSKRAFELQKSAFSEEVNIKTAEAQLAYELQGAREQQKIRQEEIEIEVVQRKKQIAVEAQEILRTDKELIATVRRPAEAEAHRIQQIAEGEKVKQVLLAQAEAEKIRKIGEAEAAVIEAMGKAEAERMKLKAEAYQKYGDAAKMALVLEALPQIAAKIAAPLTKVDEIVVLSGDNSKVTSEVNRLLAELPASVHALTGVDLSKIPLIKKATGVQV
Assay: SPR; His-tagged flotillin 1 or 2 captured on a Ni-NTA sensor chip (about 4000 RU), BIAcore T200; untagged MPP1 or its truncated mutants as analytes (at least five concentrations, 50-2000 nM), association 360 s, dissociation 600 s; HBS-T; global fit, 1:1 Langmuir model with mass transport step
Details: both partners purified
pKd: −log10 of the molar value.

[
  {
    "binder": "MPP1-Mut3 (residues 211–292) (domain or fragment, human, UniProt Q00013 211-292, looked up, MPP1 (p55), human, residues 211-292) SKESAGLIPSPELQEWRVASMAQSAPSEAPSCSPFGKKKKYKDKYLAKHSSIFDQLDVVSYEEVVRLPAFKRKTLVLIGASG",
    "pKd": 6.70
  },
  {
    "binder": "MPP1-Mut2 (residues 151–237) (domain or fragment, human, UniProt Q00013 151-237, looked up, MPP1 (p55), human, residues 151-237) NQQSRLPALQMFMRAQFDYDPKKDNLIPCKEAGLKFATGDIIQIINKDDSNWWQGRVEGSSKESAGLIPSPELQEWRVASMAQSAPS",
    "pKd": 6.01
  },
  {
    "binder": "MPP1-Mut4 (residues 231–466) (domain or fragment, human, UniProt Q00013 231-466, looked up, MPP1 (p55), human, residues 231-466; A FLAG form (p3XFLAG-CMV-10) was expressed in HEL cells for the functional tests only) MAQSAPSEAPSCSPFGKKKKYKDKYLAKHSSIFDQLDVVSYEEVVRLPAFKRKTLVLIGASGVGRSHIKNALLSQNPEKFVYPVPYTTRPPRKSEEDGKEYHFISTEEMTRNISANEFLEFGSYQGNMFGTKFETVHQIHKQNKIAILDIEPQTLKIVRTAELSPFIVFIAPTDQGTQTEALQQLQKDSEAIRSQYAHYFDLSLVNNGVDETLKKLQEAFDQACSSPQWVPVSWVY",
    "pKd": 7.30
  }
]
